test: Quantitative High-Throughput drug screen in 47 multiple myeloma cell lines against the NCATS MIPE library collection: PE2_PLB cell viability assay (AID 1919869); settings: PE2_PLB myeloma cells viability, ATP luminescence, 48 h; series mostly up to 45.8 µM; also: nearly all actives have a fitted effect of over 35% in size
Inconclusive results are not listed. Calls of active or inactive are those of the source. Calls follow the shape of the dose curve; as a rule, active = well fitted cell-killing curve with a large enough effect; inconclusive = small, poorly fitted or top-dose-only effect, or effect the other way; inactive = no such curve, though single readings can be large or run the other way.
Outcome codes: active, inactive

compound	classification
C[C@@H](N)c1ccc(C(=O)Nc2ccnc3[nH]ccc23)cc1	active
Cc1ccccc1-n1c(Cn2nc(-c3cccc(O)c3)c3c(N)ncnc32)nc2cccc(C)c2c1=O	active
Cc1nc(NC(=O)N2CCC[C@@H]2C(N)=O)sc1-c1csc(C(C)(C)C)n1	active
O=S(=O)(NCCNCC=Cc1ccc(Br)cc1)c1cccc2cnccc12	active
COc1ccc(C=CC(=O)Nc2ccccc2C(=O)O)cc1OC	active
COc1ccnc(CS(=O)c2nc3ccc(OC(F)F)cc3[nH]2)c1OC (centres undefined)	inactive
CC(C)C[C@@H](C(=O)N[C@H](C(=O)OC1CCCC1)c1ccccc1)[C@H](O)C(=O)NO	active
C#CCN(C)CC1=Cc2ccccc2Oc2ccccc21	inactive
COC(=O)Nc1ccc(-c2nc(N3CCOCC3)c3cnn(C4CCN(C(=O)OC)CC4)c3n2)cc1	active
C[C@@H](O[C@H]1OCCN(Cc2n[nH]c(=O)[nH]2)[C@@H]1c1ccc(F)cc1)c1cc(C(F)(F)F)cc(C(F)(F)F)c1	active
c1cc(OCCN2CCCCC2)cc(-c2n[nH]c3ccc(-c4ncn[nH]4)cc23)c1	active
CCCC1OC2C[C@@H]3[C@H]4CCC5=CC(=O)C=C[C@]5(C)[C@H]4C(O)C[C@]3(C)[C@]2(C(=O)CO)O1 (some centres undefined)	inactive
CC(=O)NCCC(=O)N[C@@H](CCC(N)=O)C(=O)N[C@@H](CO)C(=O)N[C@@H](CCC(N)=O)C(=O)N[C@@H](CCC(N)=O)C(=O)N[C@H](C(=O)N[C@@H](Cc1ccccc1)C(=O)N[C@]1(C)CCCCCCC=CCCC[C@@](C)(C(=O)N[C@@H](CCC(N)=O)C(=O)N[C@@H](CC(N)=O)C(N)=O)NC(=O)[C@H](CC(C)C)NC(=O)[C@H](CC(C)C)NC(=O)[C@@H](CCCNC(=N)N)NC(=O)[C@H](Cc2c[nH]c3ccccc23)NC(=O)[C@H](CC(C)C)NC(=O)[C@H](CC(N)=O)NC1=O)[C@H](C)O	active
O=c1[nH]c(=O)n([C@H]2C[C@@H](O)[C@@H](CO)O2)cc1C(F)(F)F	active
O=C1C(c2c(O)[nH]c3ccccc23)=Nc2ccccc21	active
CC1CCN(c2cc(N3CCN(C)CC3)ccc2NC(=O)c2cc(C#N)c[nH]2)CC1	inactive
Cc1cc2nc3c(=O)[nH]c(=O)nc-3n(CC(O)C(O)C(O)CO)c2cc1C (centres undefined)	inactive
NC(=O)c1noc([C@H](CCCC2CCCCC2)CC(=O)NO)n1	active
Cc1cc(-c2ncc(CC(=O)Nc3ccc(-c4cnccn4)cn3)cc2C)ccn1	active
C[C@H]1O[C@@H](n2cc(F)c(=O)[nH]c2=O)[C@H](O)[C@H]1O	active
Nc1[nH]nc2nnc(-c3c(-c4ccccc4)nn4ccccc34)cc12	active
CCC(C)SSc1ncc[nH]1 (centres undefined)	active
CC(C)C[C@@H](N)[C@H](O)C(=O)N[C@H](C(=O)N[C@H](C(=O)N[C@@H](CC(=O)O)C(=O)O)C(C)C)C(C)C	active
CC(=O)O[C@]1(C(C)=O)CC[C@H]2[C@@H]3C=C(Cl)C4=CC(=O)[C@@H]5C[C@H]5[C@]4(C)[C@@H]3CC[C@@]21C	active
OC(c1cc(C(F)(F)F)nc2c(C(F)(F)F)cccc12)C1CCCCN1 (centres undefined)	active
O=C(Nc1ccccc1)Nc1ccc(-c2ccc(C(=O)[C@H]3CCC[C@H]3C(=O)O)cc2)cc1	inactive
CC1(C)[C@H]2CC[C@]3(C)[C@@H](C(=O)C=C4[C@@H]5C[C@@](C)(C(=O)O)CC[C@]5(C)CC[C@]43C)[C@@]2(C)CC[C@@H]1O	inactive
Cn1c(=O)c(-c2c(Cl)cccc2Cl)cc2cnc(Nc3cccc(C(=O)O)c3)nc21	inactive
OC[C@H]1O[C@@H](OCCc2ccc(O)cc2)[C@H](O)[C@@H](O)[C@H]1O	inactive
O=C(c1ccc(F)c(F)c1Nc1ccc(I)cc1F)N1CC(O)([C@H]2CCCCN2)C1	active
COc1cc2ncn(-c3cc(OCc4ccccc4S(C)(=O)=O)c(C#N)s3)c2cc1OC	active
COc1ccc(CCN(C)CCCOc2ccc(S(=O)(=O)c3[nH]c4ccccc4c3C(C)C)cc2)cc1OC	active
CC(C)(C)c1nc(-c2cccc(NS(=O)(=O)c3c(F)cccc3F)c2F)c(-c2ccnc(N)n2)s1	active
Cc1c(-c2cccc3c(CCCOc4cccc5ccccc45)c(C(=O)O)n(Cc4cccnc4)c23)c(COc2ccc(N3CCN([S+](=O)([O-])N(C)C)CC3)cc2)nn1C	active

Where do these numbers come from? They come from PubChem BioAssay (NCATS).
